# Test system: SF-539 CNS
# Test name: NCI tumour cell line growth inhibition, 48 h
Measurement kind: TGI (µM)

Compound | Sign | Result number
C[C@]12CC[C@H](O)CC1=CC[C@@H]1[C@@H]2CC[C@]2(C)C(=N/O)/C(=C/c3ccc([N+](=O)[O-])cc3)C[C@@H]12 | = | 19.3
CNC(=O)c1cccc2c(Nc3ccc(NS(C)(=O)=O)cc3OC)c3cccc(C)c3nc12 | = | 0.661
Cc1nc(C(N)=S)sc1C(=O)CC(=O)C(=O)Nc1nc2ccccc2[nH]1 | > | 100
C=C1C(=O)OC2CC1CCC1(C)OC1CCC(C)=CCCC2(C)O (centres undefined) | = | 10.5
CCOC(=O)C1=CC(C)(C(=O)OCC)Nc2c(nc(OC)[nH]c2=O)N1 (centres undefined) | > | 10
CN1CCN(CCCCN2c3ccccc3Sc3cc(N=[N+]=[N-])ccc32)CC1 | = | 8.31
CCS(=O)(=O)Nc1cccc(Nc2c3cccc(C)c3nc3c(C)cccc23)c1OC | = | 6.23
Cc1cc(-c2nc3ccc(F)cc3s2)ccc1N | > | 100
CN(C)CCCCN1c2ccccc2Sc2ccc(C(=O)c3ccccc3)cc21 | = | 6.59
O=C(NCC(O)CNC(=O)C(F)(F)F)C(F)(F)F | > | 100
CC(C)SC(NC(=O)C1C(C)(C)CCC1(C)C)C(=O)O (centres undefined) | > | 100
COc1ccc2nc3ccccc3c(NCCCN(C)CCCl)c2c1 | = | 1.29
CC(=O)O[C@H]1C(=O)[C@@]2(C)[C@H]([C@H](OC(=O)c3ccccc3)[C@]3(O)C[C@H](OC(=O)[C@H](O)[C@@H](NC(=O)C(C)(C)C)c4ccccc4)C(C)=C1C3(C)C)[C@]1(OC(C)=O)CO[C@@H]1C[C@@H]2O | = | 0.413
COC(=O)/C=C(/OC)[C@H](C)[C@H](/C=C/c1csc(-c2csc(C(C)C)n2)n1)OC | > | 100
CCCCCCCC(=O)OCC1OC(OC)C(NC(=O)N(CCCl)N=O)C(O)C1O (centres undefined) | = | 16.5
Br/C(=N\Nc1nn[nH]n1)c1ccncc1 | > | 100
COC(=O)[C@H](Cc1ccc(O)cc1)NC(=O)[C@@H](OC)[C@@H]1Cc2cc3cc(OC4CC(OC5CC(O)C(O)C(C)O5)C(O)C(C)O4)c(C)c(O)c3c(O)c2C(=O)[C@H]1OC1CC(OC2CC(OC3CC(C)(O)C(O)C(C)O3)C(O)C(C)O2)C(O)C(C)O1 (some centres undefined) | = | 1.97
Cc1ccc(C)c2c1CC(Cc1ccccc1C(=O)O)C2=O (centres undefined) | > | 100
[O-][n+]1onc2c1/C(=N/O)CCC2 | > | 100

###

# System: OVCAR-4 ovarian
# Test name: NCI tumour cell line growth inhibition, 48 h

Molecule | TGI
COc1ccc(-n2c(N)c(C#N)c(C#N)c2-c2ccccc2)cc1 | 93.2 µM
COc1cccc2c1c(C1=C(c3cn(C)c4ccccc34)C(=O)NC1=O)cn2C | > 25 µM
C/C(=C\COc1c2c(cc3c1CCO3)OC1(C=C2)OC(CC/C(C)=C/COc2c3ccoc3cc3oc(=O)ccc23)C(C)(C)O1)CCC(O)C(C)(C)O (stereo unspecified) | > 100 µM
CCOP(=O)(OCC)[C@H]1OC(C)(C)O[C@@H]1CO | > 100 µM
CN(C)CCCNC(=O)c1cncnc1Nc1ccc(OCc2cccc(F)c2)c(Cl)c1 | 4.36 µM
O=C1CC(O)(c2ccccc2)C(c2ccccc2)=C1c1ccccc1 (stereo unspecified) | > 100 µM
C=CN(C)S(C)(=O)=O | > 100 µM
CC(C)(C)OC(=O)NC1CCC(C(C)(C)C)CC1 (stereo unspecified) | > 100 µM
CN(C)CCCCN1c2ccccc2Sc2ccc(C(=O)c3ccccc3)cc21 | 10.8 µM
COC(=O)/C=C/c1cn(C(C)=O)c2ccc(Br)cc12 | > 100 µM
N#C/C(=C/Sc1ccccc1)C(=O)O | > 100 µM
